test.system: Trypanothione reductase (Trypanosoma cruzi, UniProt P28593)
Sequence (P28593 whole entry): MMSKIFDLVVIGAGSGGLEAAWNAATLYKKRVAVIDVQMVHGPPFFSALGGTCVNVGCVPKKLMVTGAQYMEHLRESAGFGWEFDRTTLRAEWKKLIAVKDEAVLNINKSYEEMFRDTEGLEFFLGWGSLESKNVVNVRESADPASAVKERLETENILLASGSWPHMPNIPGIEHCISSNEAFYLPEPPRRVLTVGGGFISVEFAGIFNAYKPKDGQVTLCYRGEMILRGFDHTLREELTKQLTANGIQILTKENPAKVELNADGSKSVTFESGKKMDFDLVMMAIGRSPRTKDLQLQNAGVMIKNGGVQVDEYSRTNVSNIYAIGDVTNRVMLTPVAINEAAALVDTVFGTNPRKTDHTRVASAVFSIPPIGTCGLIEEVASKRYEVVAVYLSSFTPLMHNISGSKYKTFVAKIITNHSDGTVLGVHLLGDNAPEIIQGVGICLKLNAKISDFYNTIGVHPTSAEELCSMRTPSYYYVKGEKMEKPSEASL
method.description: Inhibitory activity against Trypanosoma cruzi trypanothione reductase
endpoint.name: IC50 (µM)
Answers are plain numbers, in µM.

Reference set, count: 5
[[record]]
query_smiles = "C[N+](C)(CCCN1c2ccccc2Sc2ccc(Cl)cc21)Cc1ccc2ccccc2c1"
experimental_value = 9.3

[[record]]
query_smiles = "COc1ccc2c(C[N+](C)(C)CCCN3c4ccccc4Sc4ccc(Cl)cc43)cc(=O)oc2c1"
experimental_value = 2.95

[[record]]
query_smiles = "COc1cc(C[N+](C)(C)CCCN2c3ccccc3Sc3ccc(Cl)cc32)cc(OC)c1"
experimental_value = 5.4

[[record]]
query_smiles = "C[N+](C)(CCCN1c2ccccc2Sc2ccc(Cl)cc21)Cc1ccc([N+](=O)[O-])cc1.[Cl-]"
experimental_value = 17.9

[[record]]
query_smiles = "C[N+](C)(CCCN1c2ccccc2Sc2ccc(Cl)cc21)Cc1ccccc1"
experimental_value = 8.02


Batch request: IC50 for each of the following compounds.
1. C[N+](C)(CCCN1c2ccccc2Sc2ccc(Cl)cc21)Cc1cccc(Cl)c1
2. C[N+](C)(CCCN1c2ccccc2Sc2ccc(Cl)cc21)CC(=O)C12CC3CC(CC(C3)C1)C2
3. C[N+](C)(CCCN1c2ccccc2Sc2ccc(Cl)cc21)Cc1ccc(OCc2ccccc2)cc1

[6.6, 12.8, 10.4]

Data credit: ChEMBL document CHEMBL1133619
